protocol: amyloid nucleation score (Sup35N fusion, yeast selection) (log enrichment); library NNK2; higher = more nucleation; inactive = no reads after selection;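 also: zero at mode of non-aggregating sequences after 7 days selection at 30°C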
Label true when amyloid nucleation score >= 0.4; otherwise false.

Below are worked cases with known answers.
residue codes	classification
LGLLCTVEIHYLGNMYIHRP	true
GTMLMGVE	true
MIKHGYQWPCSLCT	false

Textbook exercise: given the entry MVLLLQASSI , state whether its amyloid nucleation score is greater than or equal to 0.4.
false

// next record YESHLCVFTCWTFRFLNVMD
false

* * *

protocol: amyloid nucleation score (Sup35N fusion, yeast selection) (log enrichment); library NNK3; higher = more nucleation; inactive = no reads after selection
value kind: amyloid nucleation score

substance	amyloid nucleation score
YMLLCPRPRGRSLRINNNDE	inactive
FCEFDIDVVLCTHRLYCNRY	inactive
SPKAVSCNTFPIGYRISFFL	inactive
IAHISLQNIVDVMGPNRSMY	1.44
NRLNIFIYSFNVAVVSI	2.31
SYYLRLYEVTWFSRFGFDRS	inactive
SNCNPEWQLLIMIDCYNYAL	inactive
RRFTHRIEVRTSVAIS	inactive

I am curious: what amyloid nucleation score value has been reported for CVYGKYLFLVIPEDEPTLYV ?
0.439

Subsequent entry: SNSHWIYWYTNPGQHRPSHR
inactive

Then this substance: EVPLDVAVKGRLW
inactive

// next record CWFNPDPGLKWF
inactive

Please do the same for SLRDVVV as well.
inactive

Next entry: MIVWTHNYLEGELFVSLPLV
inactive

Again, but for VQGKALAS
inactive

These entries and their values trace back to the supplement of paper PMC12042874.
